Can you tell me kon for the items I'm about to list?
subjectOfTest: ACE2 (human, UniProt Q9BYF1 18-740)
Sequence (Q9BYF1 18-740 limits assumed): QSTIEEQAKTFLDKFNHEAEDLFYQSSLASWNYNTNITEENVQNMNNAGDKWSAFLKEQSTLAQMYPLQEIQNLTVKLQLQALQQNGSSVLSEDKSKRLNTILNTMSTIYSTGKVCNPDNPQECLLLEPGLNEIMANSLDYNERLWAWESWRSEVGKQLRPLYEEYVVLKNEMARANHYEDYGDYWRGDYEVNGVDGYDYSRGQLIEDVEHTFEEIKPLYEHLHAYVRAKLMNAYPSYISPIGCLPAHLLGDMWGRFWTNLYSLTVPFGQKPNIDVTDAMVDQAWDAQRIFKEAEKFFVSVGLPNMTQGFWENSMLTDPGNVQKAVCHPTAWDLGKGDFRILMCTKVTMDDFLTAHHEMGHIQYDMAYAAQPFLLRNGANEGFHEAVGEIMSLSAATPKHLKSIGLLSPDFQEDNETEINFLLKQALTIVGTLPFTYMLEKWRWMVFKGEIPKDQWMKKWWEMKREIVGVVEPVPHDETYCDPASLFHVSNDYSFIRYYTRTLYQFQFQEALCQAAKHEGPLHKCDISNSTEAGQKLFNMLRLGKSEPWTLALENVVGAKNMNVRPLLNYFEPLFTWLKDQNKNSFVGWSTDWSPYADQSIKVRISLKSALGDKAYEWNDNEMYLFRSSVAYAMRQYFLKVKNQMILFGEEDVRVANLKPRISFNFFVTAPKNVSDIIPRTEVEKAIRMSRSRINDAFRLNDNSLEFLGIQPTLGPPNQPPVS
Numbers only, in M⁻¹ s⁻¹.

Worked cases, kon given:
| binder | kon (M⁻¹ s⁻¹) |
| --- | --- |
| ACE2 variant antibody 4-74 (VHH) VHH: EVQLVESGGGLVQPGGSLRLSCAASGLTFSDDTMGWFRQAPGKEREFVAAVSWSGGNTYYADSVKGRFTISADNSKNTAYLQMNSLKPEDTAVYYCATDPPLFWGQGTLVTVSS | 248000 |
| ACE2 variant antibody 4-75 (VHH) VHH: EVQLVESGGGLVQPGGSLRLSCAASGRTFGDDTMGWFRQAPGKEREFVAAINWTGGYTPYADSVKGRFTISADNSKNTAYLQMNSLKPEDTAVYYCATDPPLFWGQGTLVTVSS | 299000 |

Look at each binder and report its kon.
1. ACE2 variant antibody 4-89 (VHH) VHH: EVQLVESGGGLVQPGGSLRLSCAASGFAFGDNWIGWFRQAPGKEREWVASISSGGTTAYADNVKGRFTIIADNSKNTAYLQMNSLKPEDTAVYYCAHRGGWLRPWGYWGQGTLVTVSS
2. ACE2 variant antibody 4-56 (VHH) VHH: EVQLVESGGGLVQPGGSLRLSCAASGFSLDYYGMGWFRQAPGKERESVAAISWNGDFTAYADSVKGRFTISADNSKNTAYLQMNSLKPEDTAVYYCAKRANPTGAYFDYWGQGTLVTVSS

**A:**
1: 2.04e+06; 2: 130000
